Test system: Rattus norvegicus
experimentNotes: Body weight was determined in rat after oral administration of 500 mg/kg on day 0
Format: functional
parameter: Body weight

# lineNotation, result
measured = [
    ("Cc1ccc(C(=O)Oc2cc(O)c3c(=O)cc(-c4ccccc4)oc3c2)cc1", 237.5),
    ("CCCOc1cc(OCCC)c2c(=O)cc(-c3ccccc3)oc2c1", 235.8),
    ("CCCCCCCCOc1cc(O)c2c(=O)cc(-c3ccccc3)oc2c1", 230.8),
    ("CCCCOc1cc(O)c2c(=O)cc(-c3ccccc3)oc2c1", 235),
]

---

Tested on: Mus musculus
experimentNotes: Body weight was determined in mouse after oral administration of 100 mg/kg on day 7
Assay type: functional
The following molecules are listed with their measured Body weight values.
parameter: Body weight

# lineNotation, measurementTarget, result
records = [
    ("CCCCOc1cc(O)c2c(=O)cc(-c3ccccc3)oc2c1", "Mus musculus", 31),
    ("Cc1ccc(C(=O)Oc2cc(O)c3c(=O)cc(-c4ccccc4)oc3c2)cc1", "Mus musculus", 31.6),
    ("CCCOc1cc(OCCC)c2c(=O)cc(-c3ccccc3)oc2c1", "Mus musculus", 32.1),
    ("CCCCCCCCOc1cc(O)c2c(=O)cc(-c3ccccc3)oc2c1", "Mus musculus", 31.6),
]

---

experimentNotes: Ratio of hypoglycemic activity in mice was tested on day 7.
Format: functional
Threshold check on Ratio: strictly below 90 is yes; on or above 90 is no.

# lineNotation, className
rows = [
    ("O=c1cc(-c2ccccc2)oc2cc(O)cc(O)c12", "no"),
    ("CCCCCCCCOc1cc(O)c2c(=O)cc(-c3ccccc3)oc2c1", "yes"),
    ("CCCOc1cc(O)c2c(=O)cc(-c3ccccc3)oc2c1", "yes"),
    ("CC(=O)Oc1ccccc1C(=O)Oc1cc(O)c2c(=O)cc(-c3ccccc3)oc2c1", "no"),
]

---

experimentNotes: Ratio of hypoglycemic activity in mice was tested on day 7.
Assay type: functional
Quick list: Ratio per entry.

# lineNotation, Ratio
data = [
    ("CCOc1cc(OCC)c2c(=O)cc(-c3ccccc3)oc2c1", 91.7),
    ("CCCCOc1cc(OCCCC)c2c(=O)cc(-c3ccccc3)oc2c1", 89.3),
    ("O=C(/C=C/c1ccccc1)Oc1cc(O)c2c(=O)cc(-c3ccccc3)oc2c1", 92.6),
]
